Assay: Metabolic stability in rat liver microsomes assessed as half life
Type: ADME, Microsome
measured.parameter: half-life

Q: Need half-life of "CC(C)C[C@](C)(N)COc1ccc(-c2ccnc(C(F)F)c2)nc1C(F)F" , thanks.
Result: > 2 h

====

Test: Drug concentration in Sprague-Dawley rat spinal cord with CCI induced thermal hyperalgesia at 1 mg/kg, po measured at 5.75 hrs post dose
Format: ADME, organism-based
Details: read-out: Ct
measured.parameter: concentration at 5.75 h
Phrase the answer as number then unit, nothing more needed.

Q: Need concentration at 5.75 h of CC(C)C[C@](C)(N)COc1ccc(-c2ccnc(C(F)F)c2)nc1C(F)F [PILAVAPADIN] , thanks.
Result: 1220 nM
